pKd listing for selected binders.
target: T1, human BACE1 ECD; experiment: Octet, pH 5.0;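 note: antibodies captured on anti-human capture sensor tips, dissociation monitored in PBS with BSA buffer, kinetics fitted with a one-to-one binding model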
T1 construct: analyte of the Octet assay (200 nM) and enzyme of the first short substrate assay; also called human BACE1 extracellular domain
T1 sequence (single chain, as listed by the source limits assumed): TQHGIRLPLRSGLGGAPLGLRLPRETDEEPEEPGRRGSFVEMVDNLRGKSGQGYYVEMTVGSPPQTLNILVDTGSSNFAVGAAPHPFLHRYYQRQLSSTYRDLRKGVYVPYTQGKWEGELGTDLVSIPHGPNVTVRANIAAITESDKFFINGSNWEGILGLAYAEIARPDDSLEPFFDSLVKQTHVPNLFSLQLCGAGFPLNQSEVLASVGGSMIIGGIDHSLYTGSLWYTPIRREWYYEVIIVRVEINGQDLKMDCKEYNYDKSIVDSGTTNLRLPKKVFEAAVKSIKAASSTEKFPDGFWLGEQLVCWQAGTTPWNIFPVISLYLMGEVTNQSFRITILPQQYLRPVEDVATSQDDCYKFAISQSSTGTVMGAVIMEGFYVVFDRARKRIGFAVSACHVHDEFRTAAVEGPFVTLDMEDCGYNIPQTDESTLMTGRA
Please keep in mind that pKd is minus log10 of the molar concentration; only the number is needed.

Previously resolved entries follow.
# binder, pKd
rows = [
    ("5892 (antibody, V domains shown, anti-BACE1 IgG) VH: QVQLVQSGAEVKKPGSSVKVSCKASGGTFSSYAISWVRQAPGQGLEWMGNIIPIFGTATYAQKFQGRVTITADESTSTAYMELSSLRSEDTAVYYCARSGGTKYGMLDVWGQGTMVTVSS VL: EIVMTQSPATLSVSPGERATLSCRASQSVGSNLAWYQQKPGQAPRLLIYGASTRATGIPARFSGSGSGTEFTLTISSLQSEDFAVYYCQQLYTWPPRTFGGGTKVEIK", 9.41),
    ("5897 (antibody, V domains shown, anti-BACE1 IgG) VH: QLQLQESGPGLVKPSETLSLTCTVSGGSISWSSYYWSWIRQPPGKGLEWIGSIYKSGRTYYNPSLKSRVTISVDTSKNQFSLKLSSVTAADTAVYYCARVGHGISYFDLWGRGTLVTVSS VL: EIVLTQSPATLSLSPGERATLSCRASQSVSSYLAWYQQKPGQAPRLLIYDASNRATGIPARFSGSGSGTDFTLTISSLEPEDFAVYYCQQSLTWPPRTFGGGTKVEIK", 9.09),
]

Please give measured pKd of the following entry: 5896 (antibody, V domains shown, anti-BACE1 IgG) VH: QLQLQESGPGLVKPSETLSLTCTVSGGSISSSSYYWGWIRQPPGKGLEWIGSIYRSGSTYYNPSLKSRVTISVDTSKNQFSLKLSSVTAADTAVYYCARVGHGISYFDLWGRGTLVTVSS VL: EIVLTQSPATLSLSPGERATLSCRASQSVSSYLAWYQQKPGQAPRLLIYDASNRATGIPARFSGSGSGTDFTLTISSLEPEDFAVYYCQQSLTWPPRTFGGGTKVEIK
8.52
